- System: Escherichia coli TOP10
- EXPERIMENT NOTES: shrunken log2 fold change of peptide-encoding DNA abundance (4.5 h post-induction vs induction); higher = less antimicrobial activity (less host growth inhibition)
- PARTICULARS: time post-induction: 4.5 h; library: site-saturation at positions 5, 18, 19, 20
Binary call on shrunken log2 fold change: yes (1) from 0.04 upward, no (0) beneath that.

Sample answers from the record:
RRIRFRPPRLPRPRPRPLHEPRP yes (1)
RRIRYRPPRLPRPRPRPRIGPRP no (0)
RRIRFRPPRLPRPRPRPTLTPRP yes (1)
RRIRRRPPRLPRPRPRPLQIPRP yes (1)
RRIRRRPPRLPRPRPRPCVHPRP no (0)

Has RRIRHRPPRLPRPRPRPVSHPRP a recorded shrunken log2 fold change greater than or equal to 0.04?
yes (1)

Has RRIRGRPPRLPRPRPRPHVYPRP a recorded shrunken log2 fold change greater than or equal to 0.04?
yes (1)

Has RRIRPRPPRLPRPRPRPANSPRP a recorded shrunken log2 fold change greater than or equal to 0.04?
no (0)

Has RRIRKRPPRLPRPRPRPQQDPRP a recorded shrunken log2 fold change greater than or equal to 0.04?
yes (1)

Has RRIRCRPPRLPRPRPRPHHHPRP a recorded shrunken log2 fold change greater than or equal to 0.04?
no (0)

Has RRIRERPPRLPRPRPRPFIGPRP a recorded shrunken log2 fold change greater than or equal to 0.04?
no (0)

Has RRIRTRPPRLPRPRPRPDAEPRP a recorded shrunken log2 fold change greater than or equal to 0.04?
yes (1)

Has RRIRVRPPRLPRPRPRPNPPPRP a recorded shrunken log2 fold change greater than or equal to 0.04?
yes (1)

Has RRIRIRPPRLPRPRPRPTNAPRP a recorded shrunken log2 fold change greater than or equal to 0.04?
no (0)

Has RRIRCRPPRLPRPRPRPQYFPRP a recorded shrunken log2 fold change greater than or equal to 0.04?
no (0)

###

- Test system: Escherichia coli TOP10
- EXPERIMENT NOTES: shrunken log2 fold change of peptide-encoding DNA abundance (4.5 h post-induction vs induction); higher = less antimicrobial activity (less host growth inhibition)
- PARTICULARS: time post-induction: 4.5 h; library: site-saturation at positions 5, 18, 19, 20
Binary call on shrunken log2 fold change: YES from -0.1 upward, NO beneath that.

Sample answers from the record:
RRIRLRPPRLPRPRPRPEFKPRP NO
RRIRFRPPRLPRPRPRPQMHPRP NO
RRIRDRPPRLPRPRPRPTNRPRP NO
RRIRMRPPRLPRPRPRPFAAPRP YES
RRIRMRPPRLPRPRPRPPRVPRP YES

Has RRIRYRPPRLPRPRPRPCPLPRP a recorded shrunken log2 fold change greater than or equal to -0.1?
NO

Has RRIRVRPPRLPRPRPRPILYPRP a recorded shrunken log2 fold change greater than or equal to -0.1?
YES

###

- Tested on: Escherichia coli TOP10
- EXPERIMENT NOTES: shrunken log2 fold change of peptide-encoding DNA abundance (4.5 h post-induction vs induction); higher = less antimicrobial activity (less host growth inhibition)
- PARTICULARS: time post-induction: 4.5 h; library: site-saturation at positions 5, 18, 19, 20
Binary call on shrunken log2 fold change: yes from 0.01 upward, no beneath that.

RRIRDRPPRLPRPRPRPPWRPRP yes

Has RRIRFRPPRLPRPRPRPESMPRP a recorded shrunken log2 fold change greater than or equal to 0.01?
no

###

- System: Escherichia coli TOP10
- EXPERIMENT NOTES: shrunken log2 fold change of peptide-encoding DNA abundance (4.5 h post-induction vs induction); higher = less antimicrobial activity (less host growth inhibition)
- PARTICULARS: time post-induction: 4.5 h; library: site-saturation at positions 5, 18, 19, 20
Binary call on shrunken log2 fold change: condition met from -0.002 upward, condition not met beneath that.

Sample answers from the record:
RRIRVRPPRLPRPRPRPWRDPRP condition met
RRIRKRPPRLPRPRPRPKHRPRP condition met
RRIRHRPPRLPRPRPRPMDTPRP condition met
RRIRSRPPRLPRPRPRPGRCPRP condition met
RRIRYRPPRLPRPRPRPSQIPRP condition not met

Now look at this one.
Has RRIRLRPPRLPRPRPRPGWMPRP a recorded shrunken log2 fold change greater than or equal to -0.002?
condition met

###

- Test system: Escherichia coli TOP10
- EXPERIMENT NOTES: shrunken log2 fold change of peptide-encoding DNA abundance (4.5 h post-induction vs induction); higher = less antimicrobial activity (less host growth inhibition)
- PARTICULARS: time post-induction: 4.5 h; library: site-saturation at positions 5, 18, 19, 20
So I've got a bunch of sequences here, and I need their shrunken log2 fold change values.
Answers are plain numbers.

RRIRDRPPRLPRPRPRPTNMPRP -0.00949
RRIRARPPRLPRPRPRPWATPRP 0.494

Items follow; give shrunken log2 fold change for each.
1. RRIRRRPPRLPRPRPRPMFEPRP
2. RRIRHRPPRLPRPRPRPHCYPRP
3. RRIRWRPPRLPRPRPRPDTHPRP
4. RRIRNRPPRLPRPRPRPSWTPRP
5. RRIRARPPRLPRPRPRPRKKPRP
6. RRIRARPPRLPRPRPRPFNGPRP
7. RRIRERPPRLPRPRPRPNFKPRP

1: 0.266; 2: 0.0262; 3: 0.219; 4: -0.211; 5: 0.404; 6: 0.0657; 7: -0.181

Items follow; give shrunken log2 fold change for each.
1. RRIRWRPPRLPRPRPRPAPCPRP
2. RRIRCRPPRLPRPRPRPEWDPRP
3. RRIRQRPPRLPRPRPRPKLRPRP
4. RRIRRRPPRLPRPRPRPTHPPRP
5. RRIRSRPPRLPRPRPRPDYYPRP
6. RRIRFRPPRLPRPRPRPTTWPRP

1: 0.322; 2: 0.309; 3: -0.0665; 4: 0.543; 5: -0.831; 6: 0.0564

###

- Test system: Escherichia coli TOP10
- EXPERIMENT NOTES: shrunken log2 fold change of peptide-encoding DNA abundance (4.5 h post-induction vs induction); higher = less antimicrobial activity (less host growth inhibition)
- PARTICULARS: time post-induction: 4.5 h; library: site-saturation at positions 5, 18, 19, 20
Binary call on shrunken log2 fold change: yes from -0.2 upward, no beneath that.

RRIRQRPPRLPRPRPRPWKKPRP yes
RRIRARPPRLPRPRPRPTGRPRP yes

Has RRIRGRPPRLPRPRPRPKRVPRP a recorded shrunken log2 fold change greater than or equal to -0.2?
yes

Has RRIRCRPPRLPRPRPRPYAHPRP a recorded shrunken log2 fold change greater than or equal to -0.2?
yes

Has RRIRTRPPRLPRPRPRPPKSPRP a recorded shrunken log2 fold change greater than or equal to -0.2?
yes

Has RRIRYRPPRLPRPRPRPEFEPRP a recorded shrunken log2 fold change greater than or equal to -0.2?
yes

Has RRIRNRPPRLPRPRPRPFKHPRP a recorded shrunken log2 fold change greater than or equal to -0.2?
no

Has RRIRDRPPRLPRPRPRPYVMPRP a recorded shrunken log2 fold change greater than or equal to -0.2?
no

Has RRIRPRPPRLPRPRPRPLEQPRP a recorded shrunken log2 fold change greater than or equal to -0.2?
yes

Has RRIRNRPPRLPRPRPRPEPTPRP a recorded shrunken log2 fold change greater than or equal to -0.2?
yes

Has RRIRIRPPRLPRPRPRPLAFPRP a recorded shrunken log2 fold change greater than or equal to -0.2?
no

Has RRIRIRPPRLPRPRPRPSPEPRP a recorded shrunken log2 fold change greater than or equal to -0.2?
no

Has RRIRPRPPRLPRPRPRPTDHPRP a recorded shrunken log2 fold change greater than or equal to -0.2?
yes

Has RRIRCRPPRLPRPRPRPDNAPRP a recorded shrunken log2 fold change greater than or equal to -0.2?
yes

Has RRIRNRPPRLPRPRPRPDEEPRP a recorded shrunken log2 fold change greater than or equal to -0.2?
yes

Has RRIRKRPPRLPRPRPRPPPIPRP a recorded shrunken log2 fold change greater than or equal to -0.2?
yes

Has RRIRGRPPRLPRPRPRPVTQPRP a recorded shrunken log2 fold change greater than or equal to -0.2?
yes

Has RRIRNRPPRLPRPRPRPKYPPRP a recorded shrunken log2 fold change greater than or equal to -0.2?
yes

###

- Test system: Escherichia coli TOP10;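 also: peptides expressed intracellularly from a pBAD plasmid library in pooled LB shake-flask culture, induced with 0.3% L-arabinose, DNA abundance read by NGS, three biological replicates, DESeq2 with apeglm shrinkage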
- EXPERIMENT NOTES: shrunken log2 fold change of peptide-encoding DNA abundance (4.5 h post-induction vs induction); higher = less antimicrobial activity (less host growth inhibition)
- PARTICULARS: time post-induction: 4.5 h; library: site-saturation at positions 5, 18, 19, 20
Binary call on shrunken log2 fold change: yes from -0.1 upward, no beneath that.

Sample answers from the record:
RRIRFRPPRLPRPRPRPMGGPRP no
RRIRHRPPRLPRPRPRPDAQPRP yes
RRIRGRPPRLPRPRPRPQVVPRP yes
RRIRVRPPRLPRPRPRPQDDPRP yes
RRIRDRPPRLPRPRPRPFWQPRP yes
RRIRTRPPRLPRPRPRPVLHPRP no
RRIRCRPPRLPRPRPRPLGTPRP no

Now look at this one.
Has RRIRLRPPRLPRPRPRPFQLPRP a recorded shrunken log2 fold change greater than or equal to -0.1?
no

The reported numbers originate from the supplement of paper PMC9112550.
